Exercise: for every item that follows, state its recorded relative viability.
system: NCI-H1650; experiment: relative viability (nuclei count vs DMSO), 5 days (fraction); higher = more cells survive; conditions: first compound 2.53 µM
Give bare numbers.

Please supply relative viability for each of the following items, keeping them in order.
1. CCCCCCCCCCCC1=C(O)C(=O)C=C(O)C1=O [Embelin] + Nc1nc2[nH]cc(CCc3ccc(C(=O)N[C@@H](CCC(=O)O)C(=O)O)cc3)c2c(=O)[nH]1 [Pemetrexed] (partner 0.2 µM)
2. CCCCCCCCCCCC1=C(O)C(=O)C=C(O)C1=O [Embelin] + Cc1cc(Nc2cc(N3CCN(C)CC3)nc(Sc3ccc(NC(=O)C4CC4)cc3)n2)n[nH]1 [Tozasertib] (partner 0.1 µM)

1: 0.494; 2: 0.399

Field: relative viability. Fill in for each record below.
1. CCCCCCCCCCCC1=C(O)C(=O)C=C(O)C1=O [Embelin] + COc1cc2c(Oc3ccc(NC(=O)C4(C(=O)Nc5ccc(F)cc5)CC4)cc3F)ccnc2cc1OCCCN1CCOCC1 [Foretinib] (partner 0.25 µM)
2. CCCCCCCCCCCC1=C(O)C(=O)C=C(O)C1=O [Embelin] + O=C(c1cc(Cc2n[nH]c(=O)c3ccccc23)ccc1F)N1CCN(C(=O)C2CC2)CC1 [Olaparib] (partner 8 µM)

1. 1.11
2. 1.02

----------
test system: BEN; assay: relative viability (nuclei count vs DMSO), 5 days (fraction); higher = more cells survive; details: first compound 0.04 µM
Hi! Could you tag entries with relative viability below 0.3 as 1, and those at or above as 0? Much appreciated.

Clc1ccc(Nc2nnc(Cc3ccncc3)c3ccccc23)cc1 [Vatalanib] + N=C(N)NC(=N)NCCc1ccccc1 [Phenformin] (partner 250 µM) = 1
C[C@@H]1CN(CC(=O)Nc2ccc3c(c2)Cc2cccc(-c4cc(=O)cc(N5CCOCC5)o4)c2S3)C[C@H](C)O1 + CS(=O)(=O)N1CCN(Cc2cc3nc(-c4cccc5[nH]ncc45)nc(N4CCOCC4)c3s2)CC1 [Pictilisib] (partner 1 µM) = 0
Clc1ccc(Nc2nnc(Cc3ccncc3)c3ccccc23)cc1 [Vatalanib] + CS(=O)(=O)N1CCN(Cc2cc3nc(-c4cccc5[nH]ncc45)nc(N4CCOCC4)c3s2)CC1 [Pictilisib] (partner 1 µM) = 0
C[C@@H]1CN(CC(=O)Nc2ccc3c(c2)Cc2cccc(-c4cc(=O)cc(N5CCOCC5)o4)c2S3)C[C@H](C)O1 + COc1cc2c(Oc3ccc(NC(=O)C4(C(=O)Nc5ccc(F)cc5)CC4)cc3F)ccnc2cc1OCCCN1CCOCC1 [Foretinib] (partner 0.25 µM) = 0

Lab note: next molecule to report on.
Decide: relative viability of C[C@@H]1CN(CC(=O)Nc2ccc3c(c2)Cc2cccc(-c4cc(=O)cc(N5CCOCC5)o4)c2S3)C[C@H](C)O1 + N=C(N)NC(=N)NCCc1ccccc1 [Phenformin] (partner 250 µM) strictly below 0.3?
1

----------
So I've got a bunch of molecules here, and I need their relative viability values.
system: BEN; experiment: relative viability (nuclei count vs DMSO), 5 days (fraction); higher = more cells survive; conditions: first compound 0.1265 µM
Answers are plain numbers.

Examples with answers:
COc1cc(N2CCC(C(N)=O)CC2)ccc1Nc1nc(N)c(Cl)c(Nc2ccccc2S(=O)(=O)C(C)C)n1 [HG-5-88-01] + CS(=O)(=O)N1CCN(Cc2cc3nc(-c4cccc5[nH]ncc45)nc(N4CCOCC4)c3s2)CC1 [Pictilisib] (partner 1 µM) = 0.523
C[C@@H]1CN(CC(=O)Nc2ccc3c(c2)Cc2cccc(-c4cc(=O)cc(N5CCOCC5)o4)c2S3)C[C@H](C)O1 + CC(C)C[C@H](NC(=O)[C@H](Cc1ccccc1)NC(=O)c1cnccn1)B(O)O [Bortezomib] (partner 0.002 µM) = 0.71
COc1cc(N2CCC(C(N)=O)CC2)ccc1Nc1nc(N)c(Cl)c(Nc2ccccc2S(=O)(=O)C(C)C)n1 [HG-5-88-01] + COc1cc2c(Oc3ccc(NC(=O)C4(C(=O)Nc5ccc(F)cc5)CC4)cc3F)ccnc2cc1OCCCN1CCOCC1 [Foretinib] (partner 0.25 µM) = 0.702
C[C@@H]1CN(CC(=O)Nc2ccc3c(c2)Cc2cccc(-c4cc(=O)cc(N5CCOCC5)o4)c2S3)C[C@H](C)O1 + Nc1ncn([C@H]2C[C@H](O)[C@@H](CO)O2)c(=O)n1 [Decitabine] (partner 2 µM) = 0.696

Provide each entry's relative viability from the list below.
1. COc1cc(N2CCC(C(N)=O)CC2)ccc1Nc1nc(N)c(Cl)c(Nc2ccccc2S(=O)(=O)C(C)C)n1 [HG-5-88-01] + Cc1nc(Nc2ncc(C(=O)Nc3c(C)cccc3Cl)s2)cc(N2CCN(CCO)CC2)n1 [Dasatinib] (partner 0.075 µM)
2. COc1cc(N2CCC(C(N)=O)CC2)ccc1Nc1nc(N)c(Cl)c(Nc2ccccc2S(=O)(=O)C(C)C)n1 [HG-5-88-01] + Nc1ncn([C@H]2C[C@H](O)[C@@H](CO)O2)c(=O)n1 [Decitabine] (partner 2 µM)
3. COc1cc(N2CCC(C(N)=O)CC2)ccc1Nc1nc(N)c(Cl)c(Nc2ccccc2S(=O)(=O)C(C)C)n1 [HG-5-88-01] + CC1(C)CCC(c2ccc(Cl)cc2)=C(CN2CCN(c3ccc(C(=O)NS(=O)(=O)c4ccc(N[C@H](CCN5CCOCC5)CSc5ccccc5)c(S(=O)(=O)C(F)(F)F)c4)cc3)CC2)C1 [Navitoclax] (partner 0.5 µM)
4. COc1cc(N2CCC(C(N)=O)CC2)ccc1Nc1nc(N)c(Cl)c(Nc2ccccc2S(=O)(=O)C(C)C)n1 [HG-5-88-01] + CCNC(=O)c1noc(-c2cc(C(C)C)c(O)cc2O)c1-c1ccc(CN2CCOCC2)cc1 [Luminespib] (partner 0.01 µM)

1. 0.337
2. 0.738
3. 0.0551
4. 0.412

Respectfully, I request relative viability for each entry included below.
1. C[C@@H]1CN(CC(=O)Nc2ccc3c(c2)Cc2cccc(-c4cc(=O)cc(N5CCOCC5)o4)c2S3)C[C@H](C)O1 + CC(=O)c1c(C)c2cnc(Nc3ccc(N4CCNCC4)cn3)nc2n(C2CCCC2)c1=O [Palbociclib] (partner 0.5 µM)
2. COc1cc(N2CCC(C(N)=O)CC2)ccc1Nc1nc(N)c(Cl)c(Nc2ccccc2S(=O)(=O)C(C)C)n1 [HG-5-88-01] + Cc1cc(Nc2cc(N3CCN(C)CC3)nc(Sc3ccc(NC(=O)C4CC4)cc3)n2)n[nH]1 [Tozasertib] (partner 0.1 µM)

[0.471, 0.482]
